- Test system: SK-CO-1 cells
- measurementNotes: MTT cell proliferation assay
- Type: cell-based
- experimentalParameters: Homo sapiens, 72-hour MTT
- Description: The MTT cell proliferation assay was used to study the cytotoxic properties of the compounds. The assay was performed according to the method described by Roche Molecular Biochemicals, with minor modifications. […] After solubilization, the formazan dye was quantitated using a scanning multi-well spectrophotometer (ELISA reader). […] All optical densities were measured at 490 nm using a Vmax Kinetic Microplate Reader (Molecular Devices). […]
pIC50: −log10 of the molar value.
experimentalReadout: pIC50

>>> df
                                   compound  experimentalreadout  quantitativeresult
0  Nc1ccc(/C=C/C(=O)NCc2cc3cc(-c4ccc(C(=O)N5CCC(F)(F)CC5)cn4)cc(C(F)(F)F)c3o2)cn1 [Compound 585]                pIC50                5.92

----------
- System: MOLT4 cells
- measurementNotes: MTT cell proliferation assay
- Format: cell-based
- experimentalParameters: Homo sapiens, MOLT-4, 72-hour MTT
- Protocol: The MTT cell proliferation assay was used to study the cytotoxic properties of the compounds. The assay was performed according to the method described by Roche Molecular Biochemicals, with minor modifications. […] After solubilization, the formazan dye was quantitated using a scanning multi-well spectrophotometer (ELISA reader). […] All optical densities were measured at 490 nm using a Vmax Kinetic Microplate Reader (Molecular Devices). […]
experimentalReadout: IC50 (nM)

>>> df
                             moleculesmiles  assayedtarget  quantitativeresult
0  Nc1ccc(/C=C/C(=O)NCc2cc3cc(-c4ccc(C(=O)N5CCC(F)(F)CC5)cn4)cc(C(F)(F)F)c3o2)cn1    MOLT4 cells                  40

----------
Reported IC50 values are given for each entry in this list.
- System: Z138 cells
- measurementNotes: MTT cell proliferation assay
- Format: cell-based
- experimentalParameters: Homo sapiens, Z-138, Z138 cells; approximately 64-72 hours incubation; read-out: MTT Assay IC50 Z-138
experimentalReadout: IC50

>>> df
                                   molecule       result
0  Nc1ccc(/C=C/C(=O)NCc2cc3cc(-c4ccc(NC(=O)N5CCOCC5)cc4)cc(Cl)c3o2)cn1 [Compound 582]   5 to 10 µM
1  CC(C)(C)c1cc(-c2ccc(C(=O)N3CCOCC3)cc2)cc2cc(CNC(=O)/C=C/c3ccc(N)nc3)oc12 [Compound 511]  0.1 to 5 µM
2  Nc1ccc(/C=C/C(=O)NCc2cc3cc(-c4ccc(C(=O)N5CC6CC(C5)O6)cn4)cc(C(F)(F)F)c3o2)cn1 [Compound 626]  0.1 to 5 µM
3  O=C(/C=C/c1ccncc1)NCc1cc2cc(-c3ccc(C(=O)N4CCOCC4)cc3)cc(Cl)c2o1 [Compound 535]      > 10 µM

----------
- Tested on: NCI-H226 cells
- measurementNotes: MTT cell proliferation assay
- Format: cell-based
- experimentalParameters: Homo sapiens, 72-hour MTT
experimentalReadout: IC50 (µM)

                                   compound  quantitativeresult
0  Nc1ccc(/C=C/C(=O)NCc2cc3cc(-c4ccc(C(=O)N5CCC(F)(F)CC5)cn4)cc(C(F)(F)F)c3o2)cn1 [Compound 585]                6.78

----------
- Tested on: HCC-2935 cells
- measurementNotes: MTT cell proliferation assay
- Type: cell-based
- experimentalParameters: Homo sapiens, HCC2935, 72-hour MTT
experimentalReadout: IC50 (µM)

>>> df
                             moleculesmiles  experimentalreadout  quantitativeresult
0  Nc1ccc(/C=C/C(=O)NCc2cc3cc(-c4ccc(C(=O)N5CCC(F)(F)CC5)cn4)cc(C(F)(F)F)c3o2)cn1                 IC50                4.39

----------
- Test system: HCT-15 cells
- measurementNotes: MTT cell proliferation assay
- Type: cell-based
- experimentalParameters: Homo sapiens; HCT-15 cells; 72-hour MTT; read-out: HCT-15 MTT IC50
experimentalReadout: IC50 (nM)

                                   compound  quantitativeresult
0  Nc1ccc(/C=C/C(=O)NCc2cc3cc(-c4ccc(C(=O)N5CCOCC5)cc4)cc(C(F)(F)F)c3o2)cn1 [Compound 510]                1270
1  Nc1ccc(/C=C/C(=O)NCc2cc3cc(-c4ccc(C(=O)N5CCC(F)(F)CC5)cn4)cc(C(F)(F)F)c3o2)cn1 [Compound 585]                 270
2  Nc1ccc(/C=C/C(=O)NCc2cc3cc(-c4ccc(S(=O)(=O)N5CCOCC5)cc4)cc(Cl)c3o2)cn1 [Compound 504]                  80

----------
- System: HCC-1428 cells
- measurementNotes: MTT cell proliferation assay
- Type: cell-based
- experimentalParameters: Homo sapiens, HCC1428, 72-hour MTT
experimentalReadout: IC50 (µM)

>>> print(df.to_string())
                                   compound  quantitativeresult
0  Nc1ccc(/C=C/C(=O)NCc2cc3cc(-c4ccc(C(=O)N5CCC(F)(F)CC5)cn4)cc(C(F)(F)F)c3o2)cn1 [Compound 585]                 4.4

----------
- System: Z138 cells
- measurementNotes: MTT cell proliferation assay
- Type: cell-based
- experimentalParameters: Homo sapiens, Z-138, Z138 cells; approximately 64-72 hours incubation; read-out: MTT Assay IC50 Z-138
pIC50: −log10 of the molar value.
experimentalReadout: pIC50

                                    molecule        result
 0  Nc1ccc(/C=C/C(=O)NCc2cc3cc(-c4ccc(C(=O)N5CC[C@H](F)C5)cn4)cc(C(F)(F)F)c3o2)cn1 [Compound 570]        > 7.00
 1  COc1cc(-c2ccc(C(=O)N3CCNCC3)cc2)cc2cc(CNC(=O)/C=C/c3ccc(N)nc3)oc12 [Compound 637]  5.30 to 7.00
 2  Nc1ccc(/C=C/C(=O)NCc2cc3cc(-c4ccc(C(=O)N5CCC(C(F)(F)F)CC5)cc4)cc(C(F)(F)F)c3o2)cn1 [Compound 605]  5.30 to 7.00
 3  Nc1ccc(/C=C/C(=O)NCc2cc3cc(-c4ccc(S(=O)(=O)N5CC(F)C5)cc4)cc(Cl)c3o2)cn1 [Compound 533]  5.30 to 7.00
 4  Nc1ccc(/C=C/C(=O)NCc2cc3cc(-c4ccc(C(=O)N5CC(F)(F)C5)cc4)cc(C(F)(F)F)c3o2)cn1 [Compound 520]  5.30 to 7.00
 5  Nc1ccc(/C=C/C(=O)NCc2cc3cc(-c4ccc(C(=O)N5CC6(COC6)C5)cn4)cc(C(F)(F)F)c3o2)cn1 [Compound 625]        > 7.00
 6  Nc1ccc(/C=C/C(=O)NCc2cc3cc(-c4ccc(C(=O)N5CCC(F)(F)CC5)cn4)cc(Cl)c3o2)cn1 [Compound 591]  5.30 to 7.00
 7  Nc1ccc(/C=C/C(=O)NCc2cc3cc(-c4ccc(C(=O)N5CCNCC5)cc4)cc(Cl)c3o2)cn1 [Compound 601]  5.30 to 7.00
 8  Nc1ccc(/C=C/C(=O)NCc2cc3cc(-c4cc(C(=O)N5CCOCC5)c(F)cn4)cc(Cl)c3o2)cn1 [Compound 588]        > 7.00
 9  Nc1ccc(/C=C/C(=O)NCc2nc3cc(-c4ccc(C(=O)N5CCOCC5)cc4)cc(Cl)c3o2)cn1 [Compound 501]  5.30 to 7.00
10  Nc1ccc(/C=C/C(=O)NCc2cc3cc(-c4ccc(C(=O)NNc5cnccn5)cc4)cc(Cl)c3o2)cn1 [Compound 505]  5.30 to 7.00
11  Nc1ccc(/C=C/C(=O)NCc2cc3cc(-c4cnc(C(=O)N5CCOCC5)nc4)cc(Cl)c3o2)cn1 [Compound 546]  5.30 to 7.00
12  COc1cc(-c2ccc(C(=O)N3CCOCC3)cc2)cc2cc(CNC(=O)/C=C/c3ccc(N)nc3)oc12 [Compound 592]        > 7.00
13  CN1CCN(C(=O)c2ccc(-c3cc(Cl)c4oc(CNC(=O)/C=C/c5ccc(N)nc5)cc4c3)cc2)CC1 [Compound 576]  5.30 to 7.00
14  CC1(F)CCN(C(=O)c2ccc(-c3cc(C(F)(F)F)c4oc(CNC(=O)/C=C\c5ccc(N)nc5)cc4c3)nc2)C1 (single isomer, unassigned) [Compound 656]  5.30 to 7.00
15  Nc1ccc(/C=C/C(=O)NCc2cc3cc(-c4ccc(C(=O)N5CCOCC5)c(F)c4F)cc(Cl)c3o2)cn1 [Compound 548]  5.30 to 7.00
16  CC1(C)COCCN1C(=O)c1ccc(-c2cc(C(F)(F)F)c3oc(CNC(=O)/C=C/c4ccc(N)nc4)cc3c2)cc1 [Compound 517]  5.30 to 7.00
17  Nc1ccc(/C=C/C(=O)NCc2cc3cc(-c4ccc(C(=O)N5CCC(C(F)(F)F)CC5)cn4)cc(C(F)(F)F)c3o2)cn1 [Compound 615]  5.30 to 7.00
18  Nc1ccc(/C=C/C(=O)NCc2cc3cc(-c4ccc(C(=O)N5CCNCC5)cn4)cc(Cl)c3o2)cn1 [Compound 589]        > 7.00
19  Nc1ccc(/C=C/C(=O)NCc2cc3cc(-c4ccc(S(=O)(=O)N5CCOCC5)cc4)cc(C(F)(F)F)c3o2)cn1 [Compound 531]  5.30 to 7.00
20  Nc1ccc(/C=C/C(=O)NCc2cc3cc(-c4ccc(C(=O)N5CCC(F)(F)CC5)cc4)cc(C(F)(F)F)c3o2)cn1 [Compound 566]  5.30 to 7.00
21  Nc1ccc(/C=C/C(=O)NCc2cc3cc(-c4ccc(S(=O)(=O)N5CC[C@@H](F)C5)cc4)cc(Cl)c3o2)cn1 [Compound 527]  5.30 to 7.00
22  COc1cc(-c2ncc(C(=O)N3CCOCC3)cn2)cc2cc(CNC(=O)/C=C/c3ccc(N)nc3)oc12 [Compound 638]        > 7.00
23  CC(=O)c1ccc(-c2cc(Cl)c3oc(CNC(=O)/C=C/c4ccc(N)nc4)cc3c2)s1 [Compound 500]  5.30 to 7.00
24  Nc1ccc(/C=C/C(=O)NCc2cc3cc(-c4ccc(C(=O)NC5CCC(F)(F)CC5)cn4)cc(C(F)(F)F)c3o2)cn1 [Compound 629]  5.30 to 7.00
25  CC1(F)CCN(C(=O)c2ccc(-c3cc(C(F)(F)F)c4oc(CNC(=O)/C=C/c5ccc(N)nc5)cc4c3)cc2)CC1 [Compound 604]  5.30 to 7.00
26  Nc1ccc(/C=C/C(=O)NCc2cc3cc(-c4ccc(C(=O)N5CCCCC5)cc4)cc(C(F)(F)F)c3o2)cn1 [Compound 595]  5.30 to 7.00
